Test: Stability in acidic environment at 25° C. (half-life of initial microbiological activity)
Type: physicochemical
Conditions: aqueous solution, pH 2
Label yes when half-life is at or above 600 min; otherwise label no.

{"molecule": "CC[C@H]1OC(=O)[C@H](C)[C@@H](O[C@H]2C[C@@](C)(OC)[C@@H](O)[C@H](C)O2)[C@H](C)[C@@H](O[C@@H]2O[C@H](C)C[C@H](N(C)C)[C@H]2O)[C@](C)(O)C[C@@H](C)C(=O)[C@H](C)[C@@H](O)[C@]1(C)O [Erythromycin A, reference compound]", "classLabel": "no"}
{"molecule": "CC[C@H]1OC(=O)[C@H](C)[C@@H](O[C@H]2C[C@@](C)(OC)[C@@H](O)[C@H](C)O2)[C@H](C)[C@@H](O[C@@H]2O[C@H](C)C[C@H](N(C)C)[C@H]2O)[C@](C)(O)C[C@](C)(F)C(=O)[C@H](C)[C@@H](O)[C@H]1C [P-80203, (8S)-8-fluoroerythromycin B]", "classLabel": "no"}
{"molecule": "CC[C@H]1OC(=O)[C@H](C)[C@@H](O[C@H]2C[C@@](C)(O)[C@@H](O)[C@H](C)O2)[C@H](C)[C@@H](O[C@@H]2O[C@H](C)C[C@H](N(C)C)[C@H]2O)[C@](C)(O)C[C@](C)(F)C(=O)[C@H](C)[C@@H](O)[C@]1(C)O [P-80205, (8S)-8-fluoroerythromycin C]", "classLabel": "no"}

We next turn to a different molecule, shown below.
Is it the case that CC[C@H]1OC(=O)[C@H](C)[C@@H](O[C@H]2C[C@H](OC)[C@@H](O)[C@H](C)O2)[C@H](C)[C@@H](O[C@@H]2O[C@H](C)C[C@H](N(C)C)[C@H]2O)[C@](C)(O)C[C@](C)(F)C(=O)[C@H](C)[C@@H](O)[C@H]1C [P-80204] has half-life reaching or exceeding 600 min?
yes

---

Test system: Staphylococcus aureus ATCC 6538P LRP 14
Assay: Bacteriostatic power in solid medium (MIC)
Format: cell-based
Conditions: Staphylococcus aureus, ATCC6538P; solid medium; Penycilline resistant; read-out: Minimum inhibiting concentration
Source text: the bacteriostatic power, expressed as the minimum inhibiting concentration (MIC) against both aerobic and anaerobic, Gram positive and Gram negative, bacterial stocks: the related results are reported in the tables 2 and 3.
Please respond with reported MIC for every item in the list.
One number for each entry, in µg/mL.

Please state, for each entry, its recorded MIC.
1. CC[C@H]1OC(=O)[C@H](C)[C@@H](O[C@H]2C[C@@](C)(OC)[C@@H](O)[C@H](C)O2)[C@H](C)[C@@H](O[C@@H]2O[C@H](C)C[C@H](N(C)C)[C@H]2O)[C@](C)(O)C[C@](C)(F)C(=O)[C@H](C)[C@@H](O)[C@H]1C
2. CC[C@H]1OC(=O)[C@H](C)[C@@H](O[C@H]2C[C@@](C)(O)[C@@H](O)[C@H](C)O2)[C@H](C)[C@@H](O[C@@H]2O[C@H](C)C[C@H](N(C)C)[C@H]2O)[C@](C)(O)C[C@](C)(F)C(=O)[C@H](C)[C@@H](O)[C@H]1C

1: 0.097; 2: 0.097

---

Tested on: Staphylococcus aureus ATCC 6538 P LRP 39
Test: Minimum bactericidal concentration (MBC)
Assay type: cell-based
Details: Staphylococcus aureus, ATCC6538, read-out: Minimum bactericidal concentration (MBC)
Please respond with reported MBC for every item in the list.
Give bare numbers, in µg/mL.

Example results:
{"compound": "CC[C@H]1OC(=O)[C@H](C)[C@@H](O[C@H]2C[C@H](OC)[C@@H](O)[C@H](C)O2)[C@H](C)[C@@H](O[C@@H]2O[C@H](C)C[C@H](N(C)C)[C@H]2O)[C@](C)(O)C[C@](C)(F)C(=O)[C@H](C)[C@@H](O)[C@H]1C [P-80204]", "unitSpec": "µg/mL", "MBC": 3.12}
{"compound": "CC[C@H]1OC(=O)[C@H](C)[C@@H](O[C@H]2C[C@H](OC)[C@@H](O)[C@H](C)O2)[C@H](C)[C@@H](O[C@@H]2O[C@H](C)C[C@H](N(C)C)[C@H]2O)[C@](C)(O)C[C@](C)(F)C(=O)[C@H](C)[C@@H](O)[C@]1(C)O [P-80207]", "unitSpec": "µg/mL", "MBC": 6.25}
{"compound": "CC[C@H]1OC(=O)[C@H](C)[C@@H](O[C@H]2C[C@@](C)(OC)[C@@H](O)[C@H](C)O2)[C@H](C)[C@@H](O[C@@H]2O[C@H](C)C[C@H](N(C)C)[C@H]2O)[C@](C)(O)C[C@](C)(F)C(=O)[C@H](C)[C@@H](O)[C@]1(C)O [P-80206, (8S)-8-fluoroerythromycin A]", "unitSpec": "µg/mL", "MBC": 3.12}

Please state, for each entry, its recorded MBC.
1. CC[C@H]1OC(=O)[C@H](C)[C@@H](O[C@H]2C[C@@](C)(O)[C@@H](O)[C@H](C)O2)[C@H](C)[C@@H](O[C@@H]2O[C@H](C)C[C@H](N(C)C)[C@H]2O)[C@](C)(O)C[C@](C)(F)C(=O)[C@H](C)[C@@H](O)[C@H]1C [P-80202, (8S)-8-fluoroerythromycin D]
2. CC[C@H]1OC(=O)[C@H](C)[C@@H](O[C@H]2C[C@@](C)(OC)[C@@H](O)[C@H](C)O2)[C@H](C)[C@@H](O[C@@H]2O[C@H](C)C[C@H](N(C)C)[C@H]2O)[C@](C)(O)C[C@@H](C)C(=O)[C@H](C)[C@@H](O)[C@]1(C)O [Erythromycin A, reference compound]

1: 3.12; 2: 1.56

---

Test system: Streptococcus pyogenes ATCC 8668 LRP 197
Test: Bacteriostatic power in solid medium (MIC)
Type: cell-based
Details: Streptococcus pyogenes, ATCC8668; solid medium; read-out: Minimum inhibiting concentration
metricName: MIC

Example results:
{"molecule": "CC[C@H]1OC(=O)[C@H](C)[C@@H](O[C@H]2C[C@@](C)(OC)[C@@H](O)[C@H](C)O2)[C@H](C)[C@@H](O[C@@H]2O[C@H](C)C[C@H](N(C)C)[C@H]2O)[C@](C)(O)C[C@](C)(F)C(=O)[C@H](C)[C@@H](O)[C@H]1C", "MIC": "0.049 µg/mL"}
{"molecule": "CC[C@H]1OC(=O)[C@H](C)[C@@H](O[C@H]2C[C@@](C)(O)[C@@H](O)[C@H](C)O2)[C@H](C)[C@@H](O[C@@H]2O[C@H](C)C[C@H](N(C)C)[C@H]2O)[C@](C)(O)C[C@](C)(F)C(=O)[C@H](C)[C@@H](O)[C@]1(C)O", "MIC": "0.024 µg/mL"}

Now turn to the next molecule.
// recorded MIC for CO[C@H]1C[C@H](O[C@H]2[C@H](C)[C@@H](O[C@@H]3O[C@H](C)C[C@H](N(C)C)[C@H]3O)[C@@H](C)C[C@@]3(CO3)C(=O)[C@H](C)[C@@H](O)[C@@H](C)[C@@H](C)OC(=O)[C@@H]2C)O[C@@H](C)[C@@H]1O [Oleandomycin, reference compound] : 0.195 µg/mL

---

Assay: Serum concentrations in the rat after oral administration
Type: in vivo
Conditions: rat, in vivo, po, 100 mg/kg, Serum concentration, average
metricName: concentration at 0.5 h (ng/mL)
Numbers only, in ng/mL.

// recorded concentration at 0.5 h for CC[C@H]1OC(=O)[C@H](C)[C@@H](O[C@H]2C[C@@](C)(OC)[C@@H](O)[C@H](C)O2)[C@H](C)[C@@H](O[C@@H]2O[C@H](C)C[C@H](N(C)C)[C@H]2O)[C@](C)(O)C[C@@H](C)C(=O)[C@H](C)[C@@H](O)[C@]1(C)O [Erythromycin A, reference compound] : 478

---

Test system: Streptococcus pyogenes ATCC 8668 LRP 197
Test: Bacteriostatic power in solid medium (MIC)
Type: cell-based
Details: Streptococcus pyogenes, ATCC8668, read-out: Minimum inhibiting concentration
Please respond with reported MIC for every item in the list.
Give the number first and the unit second.

{"compound": "CC[C@H]1OC(=O)[C@H](C)[C@@H](O[C@H]2C[C@@](C)(OC)[C@@H](O)[C@H](C)O2)[C@H](C)[C@@H](O[C@@H]2O[C@H](C)C[C@H](N(C)C)[C@H]2O)[C@](C)(O)C[C@@H](C)C(=O)[C@H](C)[C@@H](O)[C@]1(C)O [Erythromycin A, reference compound]", "MIC": "0.012 µg/mL"}

Please state, for each entry, its recorded MIC.
1. CC[C@H]1OC(=O)[C@H](C)[C@@H](O[C@H]2C[C@H](OC)[C@@H](O)[C@H](C)O2)[C@H](C)[C@@H](O[C@@H]2O[C@H](C)C[C@H](N(C)C)[C@H]2O)[C@](C)(O)C[C@](C)(F)C(=O)[C@H](C)[C@@H](O)[C@]1(C)O [P-80207]
2. CC[C@H]1OC(=O)[C@H](C)[C@@H](O[C@H]2C[C@H](OC)[C@@H](O)[C@H](C)O2)[C@H](C)[C@@H](O[C@@H]2O[C@H](C)C[C@H](N(C)C)[C@H]2O)[C@](C)(O)C[C@](C)(F)C(=O)[C@H](C)[C@@H](O)[C@H]1C [P-80204]
3. CC[C@H]1OC(=O)[C@H](C)[C@@H](O[C@H]2C[C@@](C)(OC)[C@@H](O)[C@H](C)O2)[C@H](C)[C@@H](O[C@@H]2O[C@H](C)C[C@H](N(C)C)[C@H]2O)[C@](C)(O)C[C@](C)(F)C(=O)[C@H](C)[C@@H](O)[C@]1(C)O [P-80206, (8S)-8-fluoroerythromycin A]

0.097 µg/mL
0.049 µg/mL
0.012 µg/mL

The measured values listed here are drawn from patent US4439426A.
